- target.desc: 5-hydroxytryptamine receptor 1A (Homo sapiens, UniProt P08908); also: assay procedure not described here
- Sequence (P08908 whole entry): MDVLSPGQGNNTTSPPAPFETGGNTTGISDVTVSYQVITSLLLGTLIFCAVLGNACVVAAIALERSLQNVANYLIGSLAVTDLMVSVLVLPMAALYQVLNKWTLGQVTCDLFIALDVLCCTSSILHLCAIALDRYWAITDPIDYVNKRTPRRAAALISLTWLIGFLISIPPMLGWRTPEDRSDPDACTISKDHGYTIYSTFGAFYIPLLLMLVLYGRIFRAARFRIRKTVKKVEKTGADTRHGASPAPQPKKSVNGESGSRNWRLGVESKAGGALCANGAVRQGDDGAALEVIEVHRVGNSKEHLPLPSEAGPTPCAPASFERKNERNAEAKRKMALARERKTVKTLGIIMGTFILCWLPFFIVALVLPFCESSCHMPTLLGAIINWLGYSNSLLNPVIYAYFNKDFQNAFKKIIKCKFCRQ
- Format: functional, cell-based
Below is a list of entries, each paired with its recorded AC50 value.

## Input Form field: AC50 recorded for "C[C@H](CCC(=O)O)[C@H]1CC[C@H]2[C@@H]3[C@@H](O)C[C@@H]4C[C@H](O)CC[C@]4(C)[C@H]3CC[C@]12C" with 5-hydroxytryptamine receptor 1A (Homo sapiens, UniProt P08908) (enter value)
## Output > 30 µM

## Input Missing value: AC50, 5-hydroxytryptamine receptor 1A (Homo sapiens, UniProt P08908), entry CC(C(=O)O)c1ccc2c(c1)[nH]c1ccc(Cl)cc12 (centres undefined) . Fill in?
## Output > 10 µM

## Input // map CC(CCc1ccc(O)cc1)NCCc1ccc(O)c(O)c1 (centres undefined) to recorded AC50 (system: 5-hydroxytryptamine receptor 1A (Homo sapiens, UniProt P08908)); also: assay procedure not described here
## Output > 30 µM
